For each record, write down the corresponding melting point.

Need melting point, item COC1=CC(=O)C(OC)=C(c2cccc(OC)c2)C1=O 72 to 75 °C

Please answer likewise for CCCNC1=CC(=O)C(NCCC)=C(c2ccc(C)cc2)C1=O 166 to 168 °C

Would you kindly repeat that for COC1=CC(=O)C(OC)=C(c2ccc(OC)c(OC)c2)C1=O ? 135 to 137 °C

Request: COC1=CC(=O)C(OC)=C(c2cccc(C)c2)C1=O 74 to 77 °C

Consider next the compound COC1=CC(=O)C(OC)=C(c2cc3ccccc3s2)C1=O in the same way. 205 to 207 °C

// same read-out, input: COC1=CC(=O)C(OC)=C(c2ccccc2-c2ccccc2)C1=O 186 to 188 °C

Again, but for COC1=CC(=O)C(OC)=C(c2ccc(-c3ccccc3)cc2)C1=O 178 to 180 °C

Do the same for COC1=C(c2ccccc2)C(=O)C(OC)=C(c2ccccc2)C1=O please 150 to 152 °C
